Target: phosphorylated p-38-alpha kinase (Homo sapiens, UniProt Q16539)
Sequence (Q16539 1-360 isoform Q16539-2): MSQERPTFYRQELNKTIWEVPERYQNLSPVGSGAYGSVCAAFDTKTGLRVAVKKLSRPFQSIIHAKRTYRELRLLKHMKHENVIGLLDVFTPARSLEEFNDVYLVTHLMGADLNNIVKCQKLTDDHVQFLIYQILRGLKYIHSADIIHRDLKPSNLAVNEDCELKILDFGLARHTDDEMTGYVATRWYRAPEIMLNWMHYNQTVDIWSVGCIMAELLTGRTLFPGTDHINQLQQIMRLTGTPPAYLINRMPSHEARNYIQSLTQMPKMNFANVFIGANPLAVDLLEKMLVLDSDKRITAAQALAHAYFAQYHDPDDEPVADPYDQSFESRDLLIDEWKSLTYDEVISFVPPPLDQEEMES
Assay: P-38 alpha kinase assay P1
Format: biochemical
Settings: Method P1; 2 h pre-incubation before ATP
IC50 vs 0.02 µM: less than gives 1; not less than gives -1.

>  <compound>
CC(C)(C)c1cc(NC(=O)Nc2cccc(Cl)c2Cl)n(-c2ccc(CC(=O)N3CC[C@H](O)C3)cc2)n1

>  <group>
1

$$$$
>  <compound>
CC(C)(C)c1cc(NC(=O)Nc2ccc(-c3cccc4c3CNC4=O)cc2)n(-c2cccc(CC(N)=O)c2)n1

>  <group>
-1

$$$$
>  <compound>
O=C(Cc1cccc(-n2nc(-c3cccc(F)c3)cc2NC(=O)Nc2cccc(Cl)c2Cl)c1)NCCO

>  <group>
1

$$$$
>  <compound>
NC(=O)Cc1cccc(-n2nc(C3CCCC3)cc2NC(=O)Nc2cccc(Cl)c2Cl)c1

>  <group>
1

$$$$
>  <compound>
O=C(Cc1cccc(-n2nc(-c3cccs3)cc2NC(=O)Nc2cccc(Cl)c2Cl)c1)NCC(O)CO (stereo not shown)

>  <group>
1

$$$$

(Q) Find out if reported IC50 for CC(C)(C)c1cc(NC(=O)Nc2ccc(F)c(F)c2F)n(-c2cccc(CC(N)=O)c2)n1 is less than 0.02 µM
(A) 1

(Q) Find out if reported IC50 for CC(C)(C)c1cc(NC(=O)Nc2cccc(-c3cccnc3)c2)n(-c2cccc(CC(N)=O)c2)n1 is less than 0.02 µM
(A) -1

====

Target: phospho p-38 alpha kinase (Homo sapiens)
Construct: purchased Panvera
Sequence (Q16539 whole entry): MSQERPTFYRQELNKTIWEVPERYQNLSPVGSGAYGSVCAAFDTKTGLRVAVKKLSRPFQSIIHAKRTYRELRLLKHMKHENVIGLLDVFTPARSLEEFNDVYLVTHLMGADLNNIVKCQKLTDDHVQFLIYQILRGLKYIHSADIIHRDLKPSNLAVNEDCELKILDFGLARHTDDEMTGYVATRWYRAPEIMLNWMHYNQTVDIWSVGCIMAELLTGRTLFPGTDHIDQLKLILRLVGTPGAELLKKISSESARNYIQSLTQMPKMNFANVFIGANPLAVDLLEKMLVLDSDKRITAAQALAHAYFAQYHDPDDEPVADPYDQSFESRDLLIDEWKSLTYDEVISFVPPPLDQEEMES
Experiment: P-38 alpha kinase assay (spectrophotometric, pyruvate kinase/lactate dehydrogenase coupled)
Type: biochemical
Conditions: Table 5; assay not named; read-out: uM
IC50 vs 0.09 µM: less than gives y; not less than gives n.

Here are 8 compounds together with their reported answers.
>  <compound>
COc1cccc(NC(=O)Nc2cc(-c3ccccc3)nn2-c2cccc(CO)c2)c1

>  <system-tested>
phospho p-38 alpha kinase (Homo sapiens)

>  <group>
y

$$$$
>  <compound>
O=C(Nc1cccc(Cl)c1Cl)Nc1cc(-c2ccccc2F)nn1-c1cccc(CO)c1

>  <system-tested>
phospho p-38 alpha kinase (Homo sapiens)

>  <group>
y

$$$$
>  <compound>
NC(=O)Cc1ccc(-n2nc(-c3cccs3)cc2NC(=O)Nc2cccc(Cl)c2Cl)cc1

>  <system-tested>
phospho p-38 alpha kinase (Homo sapiens)

>  <group>
y

$$$$
>  <compound>
CC(C)(C)c1cc(NC(=O)Nc2ccc(Cl)cc2)n(-c2ccc3c(c2)CNCC3)n1

>  <system-tested>
phospho p-38 alpha kinase (Homo sapiens)

>  <group>
y

$$$$
>  <compound>
CC(C)c1cc(NC(=O)Nc2cccc3ccccc23)n(-c2ccc(C(O)C(F)(F)F)cc2)n1 (stereo not shown)

>  <system-tested>
phospho p-38 alpha kinase (Homo sapiens)

>  <group>
y

$$$$
>  <compound>
CCOC(=O)Cc1ccc(-n2nc(C(C)(C)C)cc2NC(=O)Nc2cccc3ccccc23)cc1

>  <system-tested>
phospho p-38 alpha kinase (Homo sapiens)

>  <group>
n

$$$$
>  <compound>
O=C(Cc1cccc(-n2nc(C3CCCC3)cc2NC(=O)Nc2cccc(Cl)c2Cl)c1)NCCO

>  <system-tested>
phospho p-38 alpha kinase (Homo sapiens)

>  <group>
n

$$$$
>  <compound>
CC(C)(C)c1cc(NC(=O)Nc2ccc(-c3cccc4c3CNC4=O)cc2)n(-c2cccc(CC(N)=O)c2)n1

>  <system-tested>
phospho p-38 alpha kinase (Homo sapiens)

>  <group>
n

$$$$

(Q) Find out if reported IC50 for CC(C)(C)c1cc(NC(=O)Nc2cc(F)c(F)cc2F)n(-c2cccc(CC(N)=O)c2)n1 is less than 0.09 µM
(A) n

(Q) Find out if reported IC50 for O=C(O)Cc1ccc(-n2nc(-c3ccccc3F)cc2NC(=O)Nc2cccc(Cl)c2Cl)cc1 is less than 0.09 µM
(A) n

(Q) Find out if reported IC50 for CC(C)(C)c1cc(NC(=O)Nc2ccc(Cl)cc2)n(-c2ccc(OCc3ccccc3)cc2)n1 is less than 0.09 µM
(A) y

(Q) Find out if reported IC50 for CC(Cc1ccc(-n2nc(C(C)(C)C)cc2NC(=O)Nc2ccc(Cl)cc2)cc1)C(=O)O (stereo not shown) is less than 0.09 µM
(A) n

(Q) Find out if reported IC50 for O=C(Cc1cccc(-n2nc(C3CCCC3)cc2NC(=O)Nc2cccc(Cl)c2Cl)c1)NCC(O)CO (stereo not shown) is less than 0.09 µM
(A) y

(Q) Find out if reported IC50 for CC(C)(C)c1cc(NC(=O)Nc2cccc3ccccc23)n(-c2ccc(CO)cc2)n1 is less than 0.09 µM
(A) n
